Target: FGFR3 (UniProt P22607)
Sequence (P22607 whole entry, looked up): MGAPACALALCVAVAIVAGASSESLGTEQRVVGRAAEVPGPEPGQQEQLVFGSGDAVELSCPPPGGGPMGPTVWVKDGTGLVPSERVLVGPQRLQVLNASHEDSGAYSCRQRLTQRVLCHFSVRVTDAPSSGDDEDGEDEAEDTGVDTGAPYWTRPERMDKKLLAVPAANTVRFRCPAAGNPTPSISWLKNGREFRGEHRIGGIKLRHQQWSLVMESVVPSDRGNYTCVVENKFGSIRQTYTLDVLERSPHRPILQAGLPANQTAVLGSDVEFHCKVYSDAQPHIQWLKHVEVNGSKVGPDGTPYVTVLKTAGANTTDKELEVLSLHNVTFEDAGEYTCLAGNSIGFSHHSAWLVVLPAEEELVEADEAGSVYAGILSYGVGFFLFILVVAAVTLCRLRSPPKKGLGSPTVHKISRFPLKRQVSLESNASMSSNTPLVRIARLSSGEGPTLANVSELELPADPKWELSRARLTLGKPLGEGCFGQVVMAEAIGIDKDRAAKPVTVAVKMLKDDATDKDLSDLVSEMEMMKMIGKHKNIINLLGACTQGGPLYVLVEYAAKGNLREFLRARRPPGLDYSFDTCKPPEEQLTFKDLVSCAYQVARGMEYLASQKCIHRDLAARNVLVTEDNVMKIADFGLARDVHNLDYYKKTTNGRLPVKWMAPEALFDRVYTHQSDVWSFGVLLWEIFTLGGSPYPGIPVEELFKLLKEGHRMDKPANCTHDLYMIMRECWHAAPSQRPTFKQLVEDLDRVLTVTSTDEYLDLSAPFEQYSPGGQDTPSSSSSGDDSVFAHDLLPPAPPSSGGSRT
Experiment: phosphorylation enrichment, bacterial display (enrichment ratio); higher = better substrate or ligand; peptides without Tyr show the background;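 also: 11-residue human phosphosite peptides and single-mutation variants displayed on the E. coli surface, counted by deep sequencing, each peptide's frequency after selection divided by its frequency in the unselected input library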;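 also: frequency after pTyr selection over input frequency; kinase dosed for 20-30% of maximal phosphorylation in three min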

| residue.string | phosphorylation enrichment |
| --- | --- |
| SECCKYKTDNP [OSMR_Y689_I691T] | 0.655 |
| KKGMIYGGGGG [PSME1_Y249_T244K] | 0.359 |
| AVAFVYFKSIG [ADGRL4_Y301_YF] | 1.01 |
| VVLVSYVPFSQ [SH2B1_Y624_S627F] | 0.771 |
| LEQDEYALHSH [HADHB_Y244_R247H] | 0.805 |
| KGSEGYLAAIF [NF1_Y2503_T2507I_YF] | 0.537 |
| YRQLQYCPSVE [CTNND2_Y508] | 0.928 |
| FGLQAYTEVKT [ALDH2_Y502_YF] | 0.783 |
| HFNLTYRILSF [MMP23B_Y95] | 1.19 |
| YQRITYHNWRH [PDE6B_Y556_R552Q] | 0.618 |
| MDDDQYALLTT [EFCAB6_Y675] | 1.18 |
| VFAPDYIAGVS [NOB1_Y366] | 0.807 |
| LYIDSYEKDVA [PGM1_Y521] | 1.14 |
| YGGRDYSLDEF [MYOF_Y1705] | 0.697 |

---

// phosphorylation enrichment lookup, one value per entry
Test system: c-Abl (mouse)
Test: phosphorylation enrichment, bacterial display (enrichment ratio); higher = better substrate or ligand; peptides without Tyr show the background

| residue.string | subject.of.test | phosphorylation enrichment |
| --- | --- | --- |
| GEYYRYLAEVA [YWHAG_Y133_D129E] | c-Abl (mouse) | 1.88 |
| QRALLYEDALY [UNC13D_Y56] | c-Abl (mouse) | 1.04 |
| NFYEYYVDDPP [GCHFR_Y48] | c-Abl (mouse) | 0.877 |
| CTTIHYNYMWN [TP53_Y234_C238W] | c-Abl (mouse) | 0.824 |
| QYKDKYLAKHN [CASK_Y712] | c-Abl (mouse) | 0.458 |
| GIYKDYYRYNF [PLA2G2D_Y85_S80G] | c-Abl (mouse) | 5.76 |
| IFETDYFRKGG [INSR_Y1189_YF] | c-Abl (mouse) | 0.741 |
| FDGGCYEQLFV [MC4R_Y41_S36Y_YF] | c-Abl (mouse) | 0.748 |
| EEKKKYFDTKI [CASP5_Y103_YF] | c-Abl (mouse) | 0.657 |
| EHFSFYGMKAV [SLC15A2_Y61_R57H_YF] | c-Abl (mouse) | 0.624 |
| PKFHSYVSLPF [PLXNA2_Y293] | c-Abl (mouse) | 0.801 |
| SYCYRYRCAAW [SUMF1_Y344_R349W] | c-Abl (mouse) | 0.594 |
| PSALGYSPSLH [LLGL2_Y40_R45H] | c-Abl (mouse) | 0.864 |
| KILGRYYETSS [PAX2_Y72_G76S] | c-Abl (mouse) | 0.613 |

---

// phosphorylation enrichment lookup, one value per entry
Molecular target: Fyn (UniProt P06241)
Sequence (P06241 whole entry, looked up): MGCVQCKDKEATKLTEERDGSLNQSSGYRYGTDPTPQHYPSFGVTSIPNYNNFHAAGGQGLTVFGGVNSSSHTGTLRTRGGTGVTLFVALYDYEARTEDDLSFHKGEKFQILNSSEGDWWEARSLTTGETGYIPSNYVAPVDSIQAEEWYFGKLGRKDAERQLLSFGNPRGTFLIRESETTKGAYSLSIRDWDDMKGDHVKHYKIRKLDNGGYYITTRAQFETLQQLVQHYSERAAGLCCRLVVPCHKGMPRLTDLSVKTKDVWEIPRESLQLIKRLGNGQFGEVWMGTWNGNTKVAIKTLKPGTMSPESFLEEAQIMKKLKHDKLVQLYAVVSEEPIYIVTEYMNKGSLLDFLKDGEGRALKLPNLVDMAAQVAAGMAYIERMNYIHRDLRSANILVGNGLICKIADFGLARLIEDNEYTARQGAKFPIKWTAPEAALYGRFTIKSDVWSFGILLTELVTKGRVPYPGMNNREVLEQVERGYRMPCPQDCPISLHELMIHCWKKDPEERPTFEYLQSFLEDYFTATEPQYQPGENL
Assay: phosphorylation enrichment, bacterial display (enrichment ratio); higher = better substrate or ligand; peptides without Tyr show the background
measure.name: phosphorylation enrichment

| residue.string | recorded.measurement |
| --- | --- |
| VNKIFYPDFIV [LIG3_Y768_YF] | 0.464 |
| KACKHYLTKRT [ZBTB5_Y118_T121K] | 0.595 |
| LKGQVYILGLE [ASS1_Y359_R363L] | 0.49 |
| GIYEDYVEGLR [MYL6_Y89_T85I] | 6.03 |
| RHFVFYFSFLL [PTEN_Y177_R173H_YF] | 0.538 |
| LYNQDYPIHCV [GATM_Y227_S231C] | 0.639 |
| IVRSLYEDLED [VHL_Y185] | 0.509 |
| VNQSGYTLIRK [ATP6V0A2_Y688_R685Q] | 0.387 |
| RIFDYYSARKT [STOX1_Y858_A863T] | 0.402 |
| EPTPGYEVSQR [TSC2_Y1788_G1791S] | 0.437 |
| VILENYGADID [DNAH5_Y596_L591V] | 0.653 |
| FSTPPYLLEAA [BRIP1_Y921_S919P_YF] | 0.619 |
| MGGSVYFSFPD [HIKESHI_Y55_YF] | 4.01 |
| ILCTVYAFKTR [GRM3_Y754] | 0.528 |
